Ref: patent US7652047B2

target: MEK1^CA (human GST-MEK1, constitutively active, Ser218Asp and Ser222Asp) (Homo sapiens, UniProt Q02750, S218D/S222D); construct: GST; made in house; host or cells: Escherichia coli; test: MEK1 enzymatic activity assay (MEK1^CA / ERK2 / MBP, [γ-33P]ATP incorporation); assay type: biochemical; conditions: Table 1, compounds of formula I; read-out: Avg IC50
Sequence (Q02750 whole entry S218D/S222D): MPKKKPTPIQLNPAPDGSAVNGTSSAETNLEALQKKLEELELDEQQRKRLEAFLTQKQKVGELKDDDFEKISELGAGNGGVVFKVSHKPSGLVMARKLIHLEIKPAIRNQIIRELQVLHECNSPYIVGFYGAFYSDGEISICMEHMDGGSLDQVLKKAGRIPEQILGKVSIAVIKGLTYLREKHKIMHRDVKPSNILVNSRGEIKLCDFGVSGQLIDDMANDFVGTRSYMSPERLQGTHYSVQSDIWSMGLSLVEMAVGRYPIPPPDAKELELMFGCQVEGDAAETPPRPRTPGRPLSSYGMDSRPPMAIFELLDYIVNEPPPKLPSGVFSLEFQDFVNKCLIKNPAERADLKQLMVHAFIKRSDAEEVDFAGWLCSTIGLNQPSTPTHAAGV
Recorded IC50, one value per entry.

Lab book: IC50 of CC(C)NC(=N)c1c(O)nsc1Nc1ccc(Oc2ccccc2Cl)c(F)c1 [compound 277] noted as 1 to 100 nM

Lab book: IC50 of CC(C)CNC(=N)c1c(O)nsc1Nc1ccc(Oc2ccccc2)cc1 [compound 202] noted as 1 to 100 nM

Lab book: IC50 of CC(C)N(O)C(=N)c1c(O)nsc1Nc1ccc(Oc2cc(F)cc(F)c2)cc1 [compound 421] noted as 1 to 100 nM

Lab book: IC50 of CCC[C@H]1CC[C@H](c2ccc(Nc3snc(O)c3C(=N)NC(C)C)cc2)CC1 [compound 160] noted as 100 to 500 nM

Lab book: IC50 of CC(CO)NC(=N)c1c(O)nsc1Nc1ccc(Oc2ccccc2)c(F)c1 (stereo not drawn) [compound 306] noted as 1 to 100 nM

Lab book: IC50 of N=C(NCCc1ccccc1)c1c(O)nsc1Nc1ccc(Oc2ccccc2)cc1 [Cpd 14] noted as 100 to 500 nM

Lab book: IC50 of CC(CO)NC(=N)c1c(O)nsc1Nc1ccc(Oc2ccc(Cl)cc2Cl)c(F)c1 (stereo not drawn) [compound 374] noted as 1 to 100 nM

Lab book: IC50 of CC(CO)NC(=N)c1c(O)nsc1Nc1ccc(Oc2ccc(Cl)cc2)cc1 (stereo not drawn) [compound 191] noted as 100 to 500 nM

Lab book: IC50 of Cc1cccc(C)c1Oc1ccc(Nc2snc(O)c2C(=N)NC(C)C)cc1F [compound 279] noted as 1 to 100 nM

----------
molecular target: MEK1^CA (human GST-MEK1, constitutively active, Ser218Asp and Ser222Asp) (Homo sapiens, UniProt Q02750, S218D/S222D); construct: GST; made in house; host or cells: Escherichia coli; test: MEK1 enzymatic activity assay (MEK1^CA / ERK2 / MBP, [γ-33P]ATP incorporation); format: biochemical; conditions: Table 1, compounds of formula I; read-out: Avg IC50
pIC50: −log10 of the molar value.
measured property: pIC50

Reference set, count: 8
Oc1nsc(Nc2ccc(Oc3ccccc3)cc2)c1-c1nnn[nH]1 ... < 6.30
N=C(NCCc1cccs1)c1c(O)nsc1Nc1ccc(Oc2ccccc2)cc1 ... 6.30 to 7.00
CC(=O)Nc1ccc(Oc2ccc(Nc3snc(O)c3C(=N)NCC(O)CO)cc2)cc1 (stereo not drawn) ... < 6.30
CC(C)NC(=N)c1c(O)nsc1Nc1ccc(Oc2ccc(Cl)cc2Cl)c(F)c1 ... 7.00 to 9.00
CC(Nc1snc(O)c1C(=N)NCC1CCCCC1)c1ccccc1 (stereo not drawn) ... < 6.30
Cc1cc(Oc2ccccc2)ccc1Nc1snc(O)c1C(=N)NC(C)C ... 7.00 to 9.00
CC[C@@H](CO)NC(=N)c1c(O)nsc1Nc1ccc(Oc2cccc(C(F)(F)F)c2)cc1C ... 6.30 to 7.00
N=C(NCC1CCCCC1)c1c(O)nsc1Nc1cccc([N+](=O)[O-])c1 ... 6.30 to 7.00

Lab book: pIC50 of CC(C)NC(=N)c1c(O)nsc1Nc1ccc(Oc2cccc(Cl)c2F)cc1 noted as 7.00 to 9.00

Lab book: pIC50 of CC(CO)NC(=N)c1c(O)nsc1Nc1ccc(/C=C/c2ccccc2)cc1 (stereo not drawn) noted as 6.30 to 7.00

Lab book: pIC50 of COc1ccc(Oc2ccc(Nc3snc(O)c3C(=N)NCC3CCCCC3)cc2)cc1 noted as 6.30 to 7.00

Lab book: pIC50 of CCOC(=O)c1ccc(Oc2ccc(Nc3snc(O)c3C(=N)NC(C)C)cc2)cc1 noted as 6.30 to 7.00

Lab book: pIC50 of Cc1cc(C#N)cc(C)c1Oc1ccc(Nc2snc(O)c2C(=N)NC(C)C)cc1 noted as < 6.30

Lab book: pIC50 of CC[C@H](CO)NC(=N)c1c(O)nsc1Nc1ccc(Oc2ccccc2)cc1 noted as 6.30 to 7.00

Lab book: pIC50 of N=C(NCC1CCCCC1)c1c(O)nsc1NC1CCc2ccccc21 (stereo not drawn) noted as < 6.30

Lab book: pIC50 of Cc1ccc(Oc2ccc(Nc3snc(O)c3C(=N)NC(C)C)cc2)cc1 noted as 7.00 to 9.00

Lab book: pIC50 of CC(CO)NC(=N)c1c(O)nsc1Nc1ccc(/N=N/c2ccccc2)cc1 (stereo not drawn) noted as 7.00 to 9.00

Lab book: pIC50 of N=C(NCC1(O)CCCCC1)c1c(O)nsc1Nc1ccc(Oc2ccccc2)cc1 noted as 6.30 to 7.00
